Test system: Staphylococcus epidermis
assay remarks: Minimum Inhibitory Concentration (MIC) according to DIN 58 940
Assay type: cell-based
recorded metric: MIC

Kindly give each listed record's MIC.
1. CCCCCCCCC(O)COC1COC2C(O)COC12 (centres unmarked)
2. CCCCCCCCCCCCOC1COC2C(O)COC12 (centres unmarked)
3. CCCCCCCCCCC(O)COC1COC2C(O)COC12 (centres unmarked)
4. CCCCCCCCOC1COC2C(OCCCCCCCC)COC12 (centres unmarked) [Comperative compound (1), reference compound]
5. CCCCCCCCOC1COC2C(O)COC12 (centres unmarked)

Result:
1. ≤20 ppm
2. ≤20 ppm
3. ≤20 ppm
4. <200 ppm
5. <100 ppm

The values you see were collected from patent US9993000B2.
